These data points were gathered from patent EP0049683A2.

Test system: Escherichia coli 2018
Note to self: use True only for MIC readings below 8 mg/L; a reading exactly at 8 mg/L still gets False.

Examples with answers:
| compound | classAssignment |
| --- | --- |
| CCC(C)CN1CCN(c2nc3c([nH]2)c2c(O)c4c(O)c(C)c5c(c43)C(=O)[C@@](C)(O/C=C/[C@H](OC)[C@@H](C)[C@@H](OC(C)=O)[C@H](C)[C@H](O)[C@H](C)[C@@H](O)[C@@H](C)/C=C/C=C(/C)C(=O)N2)O5)CC1 (stereo partly shown) | True |
| CCN(CC)c1nc2c3c(O)c4c(O)c(C)c5c(c4c2[nH]1)C(=O)C(C)(OC=CC(OC)C(C)C(OC(C)=O)C(C)C(O)C(C)C(O)C(C)C=CC=C(C)C(=O)N3)O5 (stereo not shown) | False |
| COC1C=COC2(C)Oc3c(C)c(O)c4c(O)c(c5nc(N6CCOCC6)[nH]c5c4c3C2=O)NC(=O)C(C)=CC=CC(C)C(O)C(C)C(O)C(C)C(OC(C)=O)C1C (stereo not shown) | False |
| COC1C=COC2(C)Oc3c(C)c(O)c4c(O)c(c5nc(N6CCN(CC7CCCCC7)CC6)[nH]c5c4c3C2=O)NC(=O)C(C)=CC=CC(C)C(O)C(C)C(O)C(C)C(OC(C)=O)C1C (stereo not shown) | True |
| CCN(CCO)c1nc2c([nH]1)c1c(O)c3c(O)c(C)c4c(c32)C(=O)[C@@](C)(O/C=C/[C@H](OC)[C@@H](C)[C@@H](OC(C)=O)[C@H](C)[C@H](O)[C@H](C)[C@@H](O)[C@@H](C)/C=C/C=C(/C)C(=O)N1)O4 | False |
| CO[C@H]1/C=C/O[C@@]2(C)Oc3c(C)c(O)c4c(O)c(c5[nH]c(N(C)CCN(C)C)nc5c4c3C2=O)NC(=O)/C(C)=C\C=C\[C@H](C)[C@H](O)[C@@H](C)[C@@H](O)[C@@H](C)[C@H](OC(C)=O)[C@@H]1C | False |

Query: Strictly below 8 mg/L in MIC? "CO[C@H]1/C=C/O[C@@]2(C)Oc3c(C)c(O)c4c(O)c(c5nc(N6CCN(Cc7ccccn7)CC6)[nH]c5c4c3C2=O)NC(=O)/C(C)=C\C=C\[C@H](C)[C@H](O)[C@@H](C)[C@@H](O)[C@@H](C)[C@H](OC(C)=O)[C@@H]1C"
Reply: False

Query: Consider the compound "CC=C(CC)CN1CCN(c2nc3c([nH]2)c2c(O)c4c(O)c(C)c5c(c43)C(=O)[C@@](C)(O/C=C/[C@H](OC)[C@@H](C)[C@@H](OC(C)=O)[C@H](C)[C@H](O)[C@H](C)[C@@H](O)[C@@H](C)/C=C/C=C(/C)C(=O)N2)O5)CC1" . Is its MIC strictly less than 8 mg/L?
Reply: True

Query: Dear reviewer, please state whether "CO[C@H]1/C=C/O[C@@]2(C)Oc3c(C)c(O)c4c(O)c(c5nc(N6CCN(Cc7ccccc7)CC6)[nH]c5c4c3C2=O)NC(=O)/C(C)=C\C=C\[C@H](C)[C@H](O)[C@@H](C)[C@@H](O)[C@@H](C)[C@H](OC(C)=O)[C@@H]1C" has MIC strictly beneath 8 mg/L.
Reply: True
